- assay_summary: Inhibition of human full-length ABCB1 expressed in FLp-In-293 cells assessed as potentiation of vincristine-induced cytotoxicity by measuring vincristine IC50 at 5 uM measured after 72 hrs by SRB assay (Rvb = 823 +/- 16 nM)
endpoint: pIC50
Quick note: pIC50 values are minus log10 of concentrations in mol/L.

Look over these answered cases.
| molecule | pIC50 |
| --- | --- |
| COc1ccc(-c2cc(OC(C)=O)c3c(-c4cccs4)c(NC(=O)c4ccccc4C)oc3c2)cc1 | 8.05 |
| COc1ccc(-c2cc(OC(C)=O)c3c(-c4cccs4)c(N(C(C)=O)C(C)=O)oc3c2)cc1 | 6.24 |
| COc1ccc(-c2cc(OC(C)=O)c3c(-c4cccs4)c(NC(=O)c4ccccc4Cl)oc3c2)cc1 | 8.04 |

Req: Identify pIC50 associated with the molecule COc1ccc(-c2cc(OC(C)=O)c3c(-c4cccs4)c(NC(=O)c4cccc(F)c4)oc3c2)cc1
Resp: 7.60

----------
- assay_summary: Inhibition of ABCB1 in FLp-In-293 cells assessed as potentiation of paclitaxel-induced cytotoxicity by measuring paclitaxel IC50 at 5 uM measured after 72 hrs by SRB assay (Rvb = 11.8 +/- 1.13 nM)
# IC50 per entry
Write down the value, and be sure its unit follows.

| molecule | value_reported |
| --- | --- |
| COc1ccc(-c2cc(OC(C)=O)c3c(-c4cccs4)c(N(C(C)=O)C(C)=O)oc3c2)cc1 | 10 nM |
| COc1ccc(-c2cc(OC(C)=O)c3c(-c4cccs4)c(NC(=O)c4ccccc4C)oc3c2)cc1 | 7.2 nM |
| COc1ccc(-c2cc(OC(C)=O)c3c(-c4cccs4)c(NC(=O)c4ccccc4Cl)oc3c2)cc1 | 6.3 nM |

Req: Identify IC50 associated with the compound COc1ccc(-c2cc(OC(C)=O)c3c(-c4cccs4)c(NC(=O)c4cccc(F)c4)oc3c2)cc1
Resp: 5.3 nM

----------
- assay_summary: Inhibition of human full-length ABCB1 expressed in FLp-In-293 cells assessed as potentiation of doxorubicin-induced cytotoxicity by measuring doxorubicin IC50 at 5 uM measured after 72 hrs by SRB assay (Rvb = 2264 +/- 196 nM)
# pIC50 per entry
Quick note: pIC50 values are minus log10 of concentrations in mol/L.

Look over these answered cases.
| molecule | pIC50 |
| --- | --- |
| COc1ccc(-c2cc(OC(C)=O)c3c(-c4cccs4)c(NC(=O)c4ccccc4Cl)oc3c2)cc1 | 6.30 |
| COc1ccc(-c2cc(OC(C)=O)c3c(-c4cccs4)c(N(C(C)=O)C(C)=O)oc3c2)cc1 | 6.17 |
| COc1ccc(-c2cc(OC(C)=O)c3c(-c4cccs4)c(NC(=O)c4ccccc4C)oc3c2)cc1 | 6.32 |

Attention now shifts to the item below.
Req: Identify pIC50 associated with the compound COc1ccc(-c2cc(OC(C)=O)c3c(-c4cccs4)c(NC(=O)c4cccc(F)c4)oc3c2)cc1
Resp: 6.30

----------
- assay_summary: Inhibition of ABCB1 in human KB-VIN cells assessed as potentiation of vincristine-induced cytotoxicity by measuring vincristine IC50 at 5 uM measured after 72 hrs by SRB assay (Rvb = 2867 +/- 142 nM)
endpoint: pIC50
Quick note: pIC50 values are minus log10 of concentrations in mol/L.

Look over these answered cases.
| molecule | pIC50 |
| --- | --- |
| COc1ccc(-c2cc(OC(C)=O)c3c(-c4cccs4)c(N(C(C)=O)C(C)=O)oc3c2)cc1 | 6.50 |
| COc1ccc(-c2cc(OC(C)=O)c3c(-c4cccs4)c(NC(=O)c4cccc(F)c4)oc3c2)cc1 | 7.92 |
| COc1ccc(-c2cc(OC(C)=O)c3c(-c4cccs4)c(NC(=O)c4ccccc4Cl)oc3c2)cc1 | 8.12 |

Req: Identify pIC50 associated with the molecule COc1ccc(-c2cc(OC(C)=O)c3c(-c4cccs4)c(NC(=O)c4ccccc4C)oc3c2)cc1
Resp: 8.19
